# Tested on: pain reaction provoked in the rat through bending of an inflamed ankle joint
# assay-procedure: Analgesic effect, pain reaction provoked through bending of an inflamed ankle joint (AgNO3 inflammation)
# condition-label: Table 5; LD50 mouse i.p. / ED25 rat oral, analgesic
Label MET when Therap. Quotient LD50/ED25 < 200; otherwise NOT MET.

[[record]]
molecule = "CC(C(=O)O)c1cc(Cl)c(-n2cc(Br)cn2)cc1Cl (stereo not shown) [VII]"
qualitative_label = "NOT MET"

[[record]]
molecule = "CC(C(=O)[O-])c1cc(Cl)c(-n2cccn2)cc1Cl.[Na+] (stereo not shown)"
qualitative_label = "NOT MET"

[[record]]
molecule = "CC(C(=O)O)c1ccc(-n2cc(Cl)cn2)c(Cl)c1 (stereo not shown) [I]"
qualitative_label = "NOT MET"

[[record]]
molecule = "O=C(O)Cc1ccc(-n2cc(Br)cn2)cc1 [III, 4-(4-bromopyrazol-1-yl)phenylacetic acid]"
qualitative_label = "NOT MET"

[[record]]
molecule = "O=C(O)Cc1ccc(-n2cc(Cl)cn2)c(Cl)c1 [IV]"
qualitative_label = "MET"

[[record]]
molecule = "CC(C(=O)O)c1ccc(-n2cc(Br)cn2)c(Cl)c1 (stereo not shown) [V]"
qualitative_label = "NOT MET"

[[record]]
molecule = "COc1ccc2c(c1)c(CC(=O)O)c(C)n2C(=O)c1ccc(Cl)cc1 [X, indomethacin, reference compound]"
qualitative_label = "MET"


* * *

Catalogue of Therapeutic Quotient LD50/ED40 readings, one per entry.
# Tested on: carrageenin oedema of rat hind paw
# assay-procedure: Inhibition of carrageenin oedema of rat hind paw
# condition-label: Table 2; LD50 mouse i.p. / ED40 rat oral
result-type: Therapeutic Quotient LD50/ED40

[[record]]
molecule = "Cn1nc(-c2ccc(CC(=O)O)cc2)cc1-c1ccccc1 [XI, reference compound]"
relation_symbol = "<"
value = 4

[[record]]
molecule = "COc1ccc2c(c1)c(CC(=O)O)c(C)n2C(=O)c1ccc(Cl)cc1 [X, indomethacin, reference compound]"
relation_symbol = "="
value = 11

[[record]]
molecule = "CC(C(=O)O)c1ccc(-n2cc(Br)cn2)c(Cl)c1 (stereo not drawn)"
relation_symbol = "="
value = 163

[[record]]
molecule = "O=C(O)Cc1ccc(-n2cc(Cl)cn2)c(Cl)c1"
relation_symbol = "="
value = 230

[[record]]
molecule = "O=C(O)Cc1ccc(-c2cc(-c3ccccc3)n(-c3ccccc3)n2)cc1 [XII, reference compound]"
relation_symbol = "="
value = 3

[[record]]
molecule = "CC(C(=O)O)c1ccc(-n2cc(Cl)cn2)c(Cl)c1 (stereo not drawn)"
relation_symbol = "="
value = 65

[[record]]
molecule = "O=C(O)Cc1ccc(-n2cccn2)cc1"
relation_symbol = "="
value = 150

[[record]]
molecule = "O=C(O)Cc1ccc(-n2cc(Br)cn2)cc1"
relation_symbol = "="
value = 122

[[record]]
molecule = "O=C(O)Cc1ccc(-n2cc(Cl)cn2)cc1"
relation_symbol = "="
value = 58


* * *

# Tested on: mouse
# condition-label: Table 6, single i.p.
Here the recorded Toxicity after single intraperitoneal administration in the mouse LD50 is given for each entry.
result-type: Toxicity after single intraperitoneal administration in the mouse LD50 (mg/kg i.p.)

[[record]]
molecule = "O=C(O)Cc1ccc(-n2cc(Br)cn2)cc1 [III, 4-(4-bromopyrazol-1-yl)phenylacetic acid]"
value = 550

[[record]]
molecule = "COc1ccc2c(c1)c(CC(=O)O)c(C)n2C(=O)c1ccc(Cl)cc1 [X, indomethacin, reference compound]"
value = 45

[[record]]
molecule = "O=C(O)Cc1ccc(-n2cccn2)cc1 [VIII, 4-(pyrazol-1-yl)phenylacetic acid]"
value = 1200

[[record]]
molecule = "CC(C(=O)O)c1ccc(-n2cc(Cl)cn2)c(Cl)c1 (stereo not shown) [I]"
value = 325

